Tested on: liver cancer (3 cell lines)
Test: CellTiter-Glo Viability Assay, liver cancer
Assay type: cell-based
Settings: Homo sapiens; PLC/PRF/5 cell line; inhibition of cancer cell proliferation; read-out: Liver cancer, EC50 PLC/PRF/5
pEC50: −log10 of the molar value.
Returns one of Fulfilled or Not fulfilled; Fulfilled when pEC50 is >= 6.

molecule	study.system	group.label
CN(C)C1CCN(c2cc(C(=O)Nc3ncc4ccc(-c5cn(C)nn5)cc4n3)ccn2)CC1 [Compound 80]	liver cancer (3 cell lines)	Not fulfilled
CN1CCN(c2ccc(NC(=O)c3n[nH]c4ccc(-c5cncc(NC(=O)C6CC6)c5)cc34)cn2)CC1 [Compound 60]	liver cancer (3 cell lines)	Not fulfilled
Cc1cc2ncc(-c3ccc4cnc(NC(=O)c5ccnc(N6CCN(C)CC6)c5)cc4c3)cc2[nH]1 [Compound 87]	liver cancer (3 cell lines)	Not fulfilled
O=C1COc2cccc(c2)-c2cncc3[nH]c(nc23)-c2n[nH]c3ccc(cc23)-c2cncc(c2)N1 [Compound 56]	liver cancer (3 cell lines)	Not fulfilled
CN1CCN(c2cc(C(=O)Nc3cc4cc(-c5cn(C)nn5)ccc4cn3)ccn2)CC1 [Compound 14]	liver cancer (3 cell lines)	Fulfilled
CN1CCC(Sc2ccc3cnc(NC(=O)c4ccnc(SC5CCN(C)CC5)c4)cc3c2)CC1 [Compound 88]	liver cancer (3 cell lines)	Not fulfilled
c1cc2cc(c1)-c1cncc3[nH]c(nc13)-c1n[nH]c3ccc(cc13)-c1cncc(c1)CNC2 [Compound 54]	liver cancer (3 cell lines)	Not fulfilled
CC(C)CC(=O)Nc1cncc(-c2ccc3[nH]nc(-c4cc5c(N6CCCCC6)cncc5[nH]4)c3c2)c1 [Compound 50]	liver cancer (3 cell lines)	Not fulfilled
CN1CCCCN(C)c2nccc3[nH]c(nc23)-c2n[nH]c3ccc(cc23)-c2cncc(c2)C1 [Compound 58]	liver cancer (3 cell lines)	Not fulfilled
O=C1CCc2cccc(c2)-c2cncc(c2)NC(=O)c2n[nH]c3ccc(cc23)-c2cncc(c2)CN1 [Compound 62]	liver cancer (3 cell lines)	Not fulfilled
CN1CCN(c2cc(C(=O)Nc3cc4cc(-c5cnn(C)c5N)ccc4cn3)ccn2)CC1 [Compound 75]	liver cancer (3 cell lines)	Fulfilled
Cc1n[nH]c2cc(F)c(-c3cncc(CN4CCNCC4)c3)cc12 [Compound 63]	liver cancer (3 cell lines)	Not fulfilled
CN1CCC(C(=O)Nc2c[nH]nc2-c2nc3c(-c4ccc(F)s4)cccc3[nH]2)CC1 [Compound 90]	liver cancer (3 cell lines)	Fulfilled
CN1CCC2(CC1)CN(c1cc(C(=O)Nc3cc4cc(-c5cnn(C)c5CO)ccc4cn3)ccn1)C2 [Compound 76]	liver cancer (3 cell lines)	Not fulfilled
Cc1ncc(-c2ccc3cnc(NC(=O)c4cnn(C5CCN(C)CC5)c4)cc3c2)o1 [Compound 83]	liver cancer (3 cell lines)	Fulfilled
CC(C)Nc1cncc(-c2ccc3cnc(NC(=O)c4cn(C5CCN(CCF)CC5)nn4)cc3c2)n1 [Compound 85]	liver cancer (3 cell lines)	Fulfilled
[2H]c1c([2H])c([2H])c(/C=C/C(=O)Nc2cc3cc(-c4cncn4C)ccc3cn2)c([2H])c1[2H] [Compound 81]	liver cancer (3 cell lines)	Fulfilled
